These data points were gathered from ChEMBL document CHEMBL1151029.

Reported Mean survival by item:
Test: Mean survival days evaluated in vivo for prophylactic efficiency against murine systemic candidiasis at a dose of 10 mg/kg
Assay type: functional

| compound | Mean survival, days |
| --- | --- |
| C[C@@H](SCCCCO)[C@](O)(Cn1cncn1)c1ccc(F)cc1F | 2.5 |
| CCCCCCCS(=O)(=O)[C@H](C)[C@](O)(Cn1cncn1)c1ccc(F)cc1F | 0.9 |
| CCCCCS[C@H](C)[C@](O)(Cn1cncn1)c1ccc(F)cc1F | 9.9 |
| OC(Cn1cncn1)(Cn1cncn1)c1ccc(F)cc1F | 10 |
| CCCCCCS[C@H](C)[C@](O)(Cn1cncn1)c1ccc(F)cc1F | 9.2 |
| C[C@@H](SCCCCCCCO)[C@](O)(Cn1cncn1)c1ccc(F)cc1F | 10 |
| CCCCCCCCS[C@H](C)[C@](O)(Cn1cncn1)c1ccc(F)cc1F | 8.6 |
| C[C@H]([C@](O)(Cn1cncn1)c1ccc(F)cc1F)S(C)(=O)=O | 10 |
| CCCS[C@H](C)[C@](O)(Cn1cncn1)c1ccc(F)cc1F | 4.4 |
| CCCCCCCCCS[C@H](C)[C@](O)(Cn1cncn1)c1ccc(F)cc1F | 5 |
